TARGET OR SYSTEM: SMN2 pre-mRNA
ASSAY REMARKS: Modulation of SMN2 mRNA D7 splicing in spinal muscular atrophy patient fibroblasts
DETAILS: fibroblast
PARAMETER: pIC50
Entry type: numeric. Quantity: pIC50, the -log10 of concentration in molar units.

A selection of reference data follows.
[[record]]
line_notation = "COC[C@]12CC[C@H](C[C@@H](N(C)c3ccc(-c4cc(F)c(-n5ccnc5)cc4O)nn3)C1)N2"
reading = 11.00

[[record]]
line_notation = "CN(c1ccc(-c2ccc(-c3cnn(C)c3)cc2O)nn1)[C@H]1C[C@@H]2CC[C@@](C)(N2)[C@H]1F"
reading = 11.00

[[record]]
line_notation = "COC[C@@]12CC[C@@H](C[C@H](N(C)c3ccc(-c4cc(F)c(-n5ccnc5)cc4O)nn3)C1)N2"
reading = 11.00

[[record]]
line_notation = "C[C@]12CC[C@H](C[C@@H](Oc3ccc(-c4ccc(-c5cn[nH]c5)cc4O)nn3)C1)N2"
reading = 11.00

[[record]]
line_notation = "C[C@@]12CC[C@@H](C[C@H](Oc3ccc(-c4ccc(-c5cn[nH]c5)cc4O)nn3)C1)N2"
reading = 11.00


Please look up its pIC50: "C[C@@]12CC[C@@H](C[C@H](Oc3ccc(-c4ccc(-n5ccnc5)cc4O)nn3)C1)N2" 7.80
